Every entry's value here was drawn from patent US20140213531A1.

Each item that follows carries a reported % inhibition at 100 µM.
- test target: Trypsin, Iodination grade, from human pancreas (human, UniProt P07477 24-247)
- protocol description: cell-based or functional assay
# number only, unit % dropped from output

>>> observed_measurement("XCTKSDPPICY (HELM PEPTIDE1{[Nle].C.T.K.S.D.P.P.I.C.Y.[dP].P}$PEPTIDE1,PEPTIDE1,2:R3-10:R3|PEPTIDE1,PEPTIDE1,1:R1-13:R2$$$V2.0; SMILES CCCC[C@@H]1NC(=O)[C@@H]2CCCN2C(=O)[C@H]2CCCN2C(=O)[C@H](Cc2ccc(O)cc2)NC(=O)[C@@H]2CSSC[C@H](NC1=O)C(=O)N[C@@H]([C@@H](C)O)C(=O)N[C@@H](CCCCN)C(=O)N[C@@H](CO)C(=O)N[C@@H](CC(=O)O)C(=O)N1CCC[C@H]1C(=O)N1CCC[C@H]1C(=O)N[C@@H]([C@@H](C)CC)C(=O)N2) [Example 44]")
100

Kindly review the next binder as well.
Q: Please give the documented % inhibition at 100 µM of RCTKSDPPICF (HELM PEPTIDE1{R.C.T.K.S.D.P.P.I.C.F.[dP].P}$PEPTIDE1,PEPTIDE1,2:R3-10:R3|PEPTIDE1,PEPTIDE1,1:R1-13:R2$$$V2.0; SMILES CC[C@H](C)[C@@H]1NC(=O)[C@@H]2CCCN2C(=O)[C@@H]2CCCN2C(=O)[C@H](CC(=O)O)NC(=O)[C@H](CO)NC(=O)[C@H](CCCCN)NC(=O)[C@H]([C@@H](C)O)NC(=O)[C@@H]2CSSC[C@H](NC1=O)C(=O)N[C@@H](Cc1ccccc1)C(=O)N1CCC[C@@H]1C(=O)N1CCC[C@H]1C(=O)N[C@@H](CCCNC(=N)N)C(=O)N2) [Example 75]
A: 92.6
